B1: HDV Ribozyme (parent)
chain: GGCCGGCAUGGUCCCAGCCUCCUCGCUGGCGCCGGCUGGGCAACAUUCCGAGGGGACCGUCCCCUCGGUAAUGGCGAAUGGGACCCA

# Variants of: B1
# assay.details: self-cleavage, relative activity (ratio to wild type); higher = more cleavage; co-transcriptional

variant.name: U60A U79G
self-cleavage: 0.807
--
variant.name: C15A C26U
self-cleavage: 0.895
--
variant.name: G5C U69C
self-cleavage: 0.396
--
variant.name: C30G A43C
self-cleavage: 0.0489
--
variant.name: G68A U79G
self-cleavage: 0.584
--
variant.name: C14U C26A
self-cleavage: 1.08
--
variant.name: U20A U47C
self-cleavage: 0.0594
--
variant.name: G54U G80A
self-cleavage: 0.257
--
variant.name: G5U G34A
self-cleavage: 0.0875
--
variant.name: A16C C64A
self-cleavage: 0.895
--
variant.name: C14U C61G
self-cleavage: 1.08
--
variant.name: C44G G73C
self-cleavage: 0.655
--
variant.name: C3G U46G
self-cleavage: 0.248
--
variant.name: A16C A70G
self-cleavage: 0.923
--
variant.name: G1U G11C
self-cleavage: 0.288
--
variant.name: A16C C84A
self-cleavage: 0.655
--
variant.name: A43G U69A
self-cleavage: 0.623
--
variant.name: G39C C84U
self-cleavage: 0.196
--
variant.name: U46A U47A
self-cleavage: 0.867
--
variant.name: C49A C63G
self-cleavage: 0.256
--
variant.name: C4G A8U
self-cleavage: 0.214
--
variant.name: U46A C86A
self-cleavage: 0.958
--
variant.name: C19U U72G
self-cleavage: 0.0396
--
variant.name: U20A C22A
self-cleavage: 0.0898
--
variant.name: A56U G81C
self-cleavage: 0.312
--
variant.name: C44U G76A
self-cleavage: 0.87
--
variant.name: C14U G35A
self-cleavage: 0.631
--
variant.name: U12A G73U
self-cleavage: 0.0997
--
variant.name: G31A C36U
self-cleavage: 0.241
--
variant.name: C58U U69C
self-cleavage: 0.95
--
variant.name: C33G A43G
self-cleavage: 0
--
variant.name: C15U C22G
self-cleavage: 0.147
--
variant.name: C30G A45U
self-cleavage: 0.107
--
variant.name: C7A G76U
self-cleavage: 0.849
--
variant.name: G25A C44G
self-cleavage: 0.0923
--
variant.name: C57A G80U
self-cleavage: 0.253
--
variant.name: G17U U46C
self-cleavage: 0.356
--
variant.name: G50U G52C
self-cleavage: 0.803
--
variant.name: A8G A77C
self-cleavage: 0.277
--
variant.name: G5U U20A
self-cleavage: 0
--
variant.name: C7G U12G
self-cleavage: 0

The reported measurements were obtained from the RNAGym collection of RNA variant scans (doi:10.7554/elife.80360).
